test summary: Half life by intravenous administration of 1.2 mg/kg in dog
Type: ADME, organism-based, Canis lupus familiaris
Set-up: dose 1.2 mg/kg, route intravenous
condition description: in vivo
value kind: half-life

* CC(C)C[C@@H](C(=O)N[C@H](C(=O)Nc1nccs1)C(C)(C)C)[C@H](C)N(O)C=O | 168 min

---

As shown below, each of these compounds has a reported pKi value.
target desc: Disintegrin and metalloproteinase domain-containing protein 17 (Homo sapiens)
Sequence (P78536 whole entry, the tested form may be a part): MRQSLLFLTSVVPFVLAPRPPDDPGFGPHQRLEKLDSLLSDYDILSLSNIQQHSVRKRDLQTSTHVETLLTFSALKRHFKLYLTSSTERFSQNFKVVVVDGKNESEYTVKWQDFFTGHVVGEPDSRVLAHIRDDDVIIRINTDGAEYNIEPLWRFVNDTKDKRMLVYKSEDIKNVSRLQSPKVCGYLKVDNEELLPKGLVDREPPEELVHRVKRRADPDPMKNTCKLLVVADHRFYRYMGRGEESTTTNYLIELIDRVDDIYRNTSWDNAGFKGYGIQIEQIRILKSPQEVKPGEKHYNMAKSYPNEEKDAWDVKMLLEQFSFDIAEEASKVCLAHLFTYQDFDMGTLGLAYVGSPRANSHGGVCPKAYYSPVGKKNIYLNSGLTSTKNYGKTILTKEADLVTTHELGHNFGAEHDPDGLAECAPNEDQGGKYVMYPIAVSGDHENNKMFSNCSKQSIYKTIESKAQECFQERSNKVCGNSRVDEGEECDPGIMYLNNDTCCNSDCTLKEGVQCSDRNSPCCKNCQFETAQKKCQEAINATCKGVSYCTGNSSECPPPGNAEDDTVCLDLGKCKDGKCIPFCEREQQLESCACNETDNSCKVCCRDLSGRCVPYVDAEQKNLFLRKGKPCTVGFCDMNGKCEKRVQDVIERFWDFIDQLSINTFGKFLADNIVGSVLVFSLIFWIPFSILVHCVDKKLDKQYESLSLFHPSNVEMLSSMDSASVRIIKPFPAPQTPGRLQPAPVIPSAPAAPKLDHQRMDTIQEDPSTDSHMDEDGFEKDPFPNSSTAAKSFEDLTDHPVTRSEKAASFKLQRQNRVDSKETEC
test summary: Inhibition of Tumor necrosis factor alpha converting enzyme
pKi: −log10 of the molar value.
value kind: pKi

• CC(C)C[C@H](NC(=O)[C@H](CC(C)C)[C@H](C)N(O)C=O)C(=O)Nc1nccs1 = 7.26
• CCC(C)[C@H](NC(=O)[C@H](CC(C)C)[C@H](CC)N(O)C=O)C(=O)Nc1ccccn1 (stereo partly specified) = 7.51
• CC(C)C[C@@H](C(=O)N[C@H](C(=O)Nc1nccs1)C(C)(C)C)[C@H](C)N(O)C=O = 7.70
• CC[C@@H]([C@@H](CC(C)C)C(=O)N[C@H](C(=O)Nc1ccccn1)C(C)(C)C)N(O)C=O = 7.54
• CC[C@H](C)C(NC(=O)[C@H](CC(C)C)[C@H](C)N(O)C=O)C(=O)Nc1nccs1 (single isomer, unassigned) = 7.70
• CC(C)C[C@@H](C(=O)N[C@H](C(N)=O)C(C)(C)C)[C@H](C)N(O)C=O = 6.81
• CC[C@H](C)[C@H](NC(=O)[C@H](CC(C)C)[C@H](CC)N(O)C=O)C(=O)Nc1nccs1 = 7.96
• CC[C@@H]([C@@H](CC(C)C)C(=O)N[C@H](C(=O)Nc1nccs1)C(C)(C)C)N(O)C=O = 7.80
• CC(C)C[C@@H](C(=O)N[C@@H](CC(C)(C)C)C(=O)Nc1nccs1)[C@H](C)N(O)C=O = 7.19
• CNC(=O)[C@@H](NC(=O)[C@H](CC(C)C)[C@H](C)N(O)C=O)C(C)(C)C = 6.85
• CC(C)C[C@@H](C(=O)N[C@H](C(=O)Nc1nccs1)C(C)C)[C@H](C)N(O)C=O = 7.57
